Where a name gives a salt, the structure may show the parent alone.
METRIC: melting point

>>> recorded_result("CN(C)CCNC(=O)c1cc(N)cc2c(=O)c3ccccc3[nH]c12 [Compound 18]")
"198 to 202 °C"
>>> recorded_result("CN(C)CCCOc1ccnc2cc([N+](=O)[O-])ccc12 (as salt: trifluoroacetate) [Compound 14]")
"146 to 149 °C"
>>> recorded_result("Cn1ccc(=O)c2cc(N)ccc21 [Compound 17, 6-Amino-1-methyl-4(1H)-quinolinone]")
"212 to 214 °C"
>>> recorded_result("CN(C)CCCCN1C(=O)c2cccc3cc(N)cc(c23)C1=O [Compound 19]")
"99 to 101 °C"
>>> recorded_result("COC(=O)CCCNS(=O)(=O)c1ccc2cccc(N)c2c1 [Compound 22]")
"162 to 167 °C"
>>> recorded_result("COC(=O)CCCNS(=O)(=O)c1cccc2c([N+](=O)[O-])cccc12 [Compound 8]")
"94 to 96 °C"
